# testDescription: recombinant barcode read abundance after kanamycin selection (control-corrected) (log10(CPM+1)); higher = more efficient recombination; sequences stand for … in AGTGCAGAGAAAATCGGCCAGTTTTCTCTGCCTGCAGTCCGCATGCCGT…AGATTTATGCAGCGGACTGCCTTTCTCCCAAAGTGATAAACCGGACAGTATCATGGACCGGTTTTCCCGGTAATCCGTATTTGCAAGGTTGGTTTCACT; site = the 11-nt target
Classification field. Basis: recombinant barcode read abundance (log10). Definitions: bucket A: < 0.1; bucket B: ≥ 0.1 and < 0.6; bucket C: ≥ 0.6

For the record CTCTAGTCTTGGGTTCTAACCTGTTGCGT (site CTCTAGTCTAC) , report the class its recombinant barcode read abundance (log10) corresponds to.
bucket C

For TGTACGACTTGGGTTCTAACCTGTTGCGG (site TGTACGACTCC) , which recombinant barcode read abundance (log10) bin applies?
bucket C

Field: class (recombinant barcode read abundance (log10)) — entry: TGCTGTACTTGGGTTCTAACCTGTTGCCT (site TGCTGTCCTAG)
bucket A

Categorize the following entry: ACGAGAGCTTGGGTTCTAACCTGTTGCCT (site ACTAGAGCTAG)
bucket B

For AAGTCGACTTGGGTTCTAACCTGTTGCCT (site AAGTGGACTAG) , which recombinant barcode read abundance (log10) bin applies?
bucket A

Which category does the recorded recombinant barcode read abundance (log10) put ACGTGAACTTGGGTTCTAACCTGTTGCCT (site ACCTGAACTAG) in?
bucket A

# bin label for TGACGTCCTTGGGTTCTAACCTGTTGCCT (site TGACGTCCTAA)
bucket B

Form: Item = GACTCATCTTGGGTTCTAACCTGTTGCGG (site GACTTGTCTCC) ; Class = ?
bucket B

Assign a bin to CTAATAGCTTGGGTTCTAACCTGTTGCTA (site CTAATATCTTA)
bucket B

Determine which band this sequence sits in: CACTTGTCTTGGGTTCTAACCTGTTGCCA (site CACTTGTCTTG)
bucket A

Lab note: sort CACTTAGCTTGGGTTCTAACCTGTTGCGG (site CACTTAGCTCC) into the matching recombinant barcode read abundance (log10) band.
bucket C

Categorize the following entry: TAACGGCCTTGGGTTCTAACCTGTTGCCT (site TAGCGGCCTAG)
bucket B

Into which category would you place ACTTGACCTTGGGTTCTAACCTGTTGCGG (site ACTTGACCTCC) ?
bucket C

Just checking, what class would you give ACCCAGTCTTGGGTTCTAACCTGTTGCCA (site ACCCAGTCTTG) here?
bucket C

Class? Entry: GGCTAGTCTTGGGTTCTAACCTGTTGCTT (site GGCTAGTCTAA)
bucket B

Assign a category based on measured recombinant barcode read abundance (log10) for GATGGAGCTTGGGTTCTAACCTGTTGCGG (site GATGGAGCTCC) and give only the class name.
bucket C

Band for AGGTTAGCTTGGGTTCTAACCTGTTGCTA (site GCAAGTACTCT) ?
bucket B

Bin this entry: TCGTGCCCTTGGGTTCTAACCTGTTGCGT (site TCGTGCCCTAC)
bucket B

Given CTAAGGACTTGGGTTCTAACCTGTTGCTT (site CTAAGGGCTCA) , name the class its recombinant barcode read abundance (log10) places it in.
bucket B

Entry GTACGTCCTTGGGTTCTAACCTGTTGCCT (site GTACGTCCTAG) belongs to which category?
bucket B

Which bin, given its recombinant barcode read abundance (log10), does CGGACGACTTGGGTTCTAACCTGTTGCCT (site CGGACGGCTAG) occupy?
bucket A

Band for the recorded recombinant barcode read abundance (log10) of ACTCAGACTTGGGTTCTAACCTGTTGCAC (site GGAGGTCCTCG) ?
bucket B

Which class holds GGGAACCCTTGGGTTCTAACCTGTTGCTG (site GGGAACCCTTA) ?
bucket C

Exercise: read the entry GAGGGCCCTTGGGTTCTAACCTGTTGCCT (site TAGGGCCCTAG) and state which class it falls under.
bucket C

Categorize the following entry: AATGCTCCTTGGGTTCTAACCTGTTGCCT (site AATGCTCCTAC)
bucket B

For ATAGGTTCTTGGGTTCTAACCTGTTGCCT (site AGAGGTTCTAG) , which recombinant barcode read abundance (log10) bin applies?
bucket A

Form field 'band' for AACTCATCTTGGGTTCTAACCTGTTGCCT (site AACTCATCTAG)
bucket B

In plain terms, what class is GTCCACTCTTGGGTTCTAACCTGTTGCAC (site GTCCACCCTCT) ?
bucket A

Which recombinant barcode read abundance (log10) band matches GTTTGGACTTGGGTTCTAACCTGTTGCAG (site GTTTGGACTCT) ?
bucket C

Form field 'band' for ATGTGCTCTTGGGTTCTAACCTGTTGCCT (site ATGTGCTCTAG)
bucket C

Sort GTAACCTCTTGGGTTCTAACCTGTTGCCA (site GTAACCTCTGG) into one of the categories.
bucket A

State the band of GACACACCTTGGGTTCTAACCTGTTGCAT (site GACACACCTAT)
bucket C

Hello team, could you let me know which band the following sequence falls into: ATGCAATCTTGGGTTCTAACCTGTTGCCT (site ATGCAAGCTAG)
bucket B

State the class of the sequence shown: TCGGAGTCTTGGGTTCTAACCTGTTGCGT (site TCGGAGTCTAT)
bucket C

Sort into band: AATAGGCCTTGGGTTCTAACCTGTTGCGT (site AATCGGCCTAC)
bucket B

The entry to classify is CGTACTACTTGGGTTCTAACCTGTTGCAC (site GGTACTACTAT) ; which class holds it?
bucket B

Category lookup for the sequence CTGGGGTCTTGGGTTCTAACCTGTTGCCT (site CTGGAGTCTAG)
bucket C

Which band does TGTATGTCTTGGGTTCTAACCTGTTGCCT (site GGTATGTCTAG) fall in?
bucket B

Any idea which band AGGAGCCCTTGGGTTCTAACCTGTTGCTT (site AGGAGCCCTGA) is in?
bucket A

Categorize the following entry: TCTTAGACTTGGGTTCTAACCTGTTGCCT (site TCTTAGACTAG)
bucket A

###

Please go through the items and note down their recombinant UMI read abundance (log10).
# testDescription: recombinant UMI read abundance after kanamycin selection (control-corrected) (log10(CPM+1)); higher = more efficient recombination; extreme values may be limits of the assay; sequences stand for … in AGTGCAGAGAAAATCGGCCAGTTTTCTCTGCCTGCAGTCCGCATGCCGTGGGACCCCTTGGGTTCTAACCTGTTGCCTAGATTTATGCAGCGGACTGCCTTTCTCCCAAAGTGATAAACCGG…AGGTTGGTTTCACT; site = the 11-nt donor
Respond numerically, and do not add a unit to the figure.

Consider the sequence shown here: GTGGTTCCATGGACCGGTTTTCCCGGTAATCCGTATTTGGT (site GTGGTTCCTAC) What is its recorded recombinant UMI read abundance (log10)?
0.0114

Entry AAGCAGGCATGGACCGGTTTTCCCGGTAATCCGTATTTGGG (site AAGCATGCTCC) : reported recombinant UMI read abundance (log10) = ?
0.00333

Name the reported recombinant UMI read abundance (log10) value associated with the sequence TAGCCGTCATGGACCGGTTTTCCCGGTAATCCGTATTTGGT (site TAGCCATCTAC)
0.764

Please look up its recombinant UMI read abundance (log10): GCACGACCATGGACCGGTTTTCCCGGTAATCCGTATTTGCA (site GCACGACCTTG)
0

Find the recorded recombinant UMI read abundance (log10) belonging to ACTCCGCCATGGACCGGTTTTCCCGGTAATCCGTATTTGTG (site ACTCCGCCTCA) and report it.
0.0108

Entry ATGACACCATGGACCGGTTTTCCCGGTAATCCGTATTTGGT (site ATGACACCTAC) : reported recombinant UMI read abundance (log10) = ?
0.0397

Name the reported recombinant UMI read abundance (log10) value associated with the sequence ACGCGAACATGGACCGGTTTTCCCGGTAATCCGTATTTGTC (site ACGCGAACTGA)
2.38

Which value of recombinant UMI read abundance (log10) has been reported for TATGGGCCATGGACCGGTTTTCCCGGTAATCCGTATTTGCT (site TATGGGCCTAG) in the records?
0

Requested read-out: recombinant UMI read abundance (log10). Entry: ACACAAACATGGACCGGTTTTCCCGGTAATCCGTATTTGTC (site ACACAAACTGA)
2.41

Looking for the measured recombinant UMI read abundance (log10) of AACTAGACATGGACCGGTTTTCCCGGTAATCCGTATTTGGT (site AACTAGACTAC) , can you help?
0.776

Using the record for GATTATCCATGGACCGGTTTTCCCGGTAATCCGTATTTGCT (site TATTATCCTAG) , report its recombinant UMI read abundance (log10).
0

Requested field: recombinant UMI read abundance (log10). Item: GCTACTGCATGGACCGGTTTTCCCGGTAATCCGTATTTGTC (site GCTACTGCTGA)
1.83

Please report the recorded recombinant UMI read abundance (log10) for CGAACATCATGGACCGGTTTTCCCGGTAATCCGTATTTGCT (site CGCACATCTAG) .
0

Given the sequence AATCTAACATGGACCGGTTTTCCCGGTAATCCGTATTTGCT (site AATGTAACTAG) , what is its reported recombinant UMI read abundance (log10)?
0.245

What value of recombinant UMI read abundance (log10) has been reported for the following sequence? GATGTGTCATGGACCGGTTTTCCCGGTAATCCGTATTTGAC (site GATGTGTCTGT)
2.61

Item TTGGAGGCATGGACCGGTTTTCCCGGTAATCCGTATTTGTG (site CTGGAGGCTCA) has what recorded recombinant UMI read abundance (log10)?
0.329

Entry AGCCCAGCATGGACCGGTTTTCCCGGTAATCCGTATTTGTT (site AGCCGAGCTAA) has what recombinant UMI read abundance (log10)?
0.0227

Query: recombinant UMI read abundance (log10); subject: GTTAAGGCATGGACCGGTTTTCCCGGTAATCCGTATTTGAG (site GTTAAGGCTCT)
1.41

The measured values listed here are drawn from the supplement of paper PMC11208160.
